- Tested on: Staphylococcus aureus
- run_description: Antibacterial activity against methicillin-resistant Staphylococcus aureus clinical isolate M20 by CLSI based micro-broth dilution method
- Format: functional
# MIC values compiled below
Just the number please, in µg/mL, no unit attached.

[in] Item under review: "C=CCc1cc(-c2ccc(OCCC[N+](C)(C)CC(=O)NCCCC)c(CC=C)c2)c2oc(=S)n(Cc3ccccc3)c2c1.[Br-]" . Reported MIC?
[out] 8

[in] Item under review: "C=CCc1cc(-c2ccc(OCCC[N+](C)(C)CC(=O)NCCCC)c(CC=C)c2)c2oc(=S)n(Cc3ccc(Cl)cc3)c2c1.[Br-]" . Reported MIC?
[out] 4

[in] Item under review: "C=CCc1cc(-c2ccc(OCCC[N+](C)(C)CC(=O)NCCCC)c(CC=C)c2)c2oc(=S)n(Cc3ccc(F)c(Br)c3)c2c1.[Br-]" . Reported MIC?
[out] 4

[in] Item under review: "C=CCc1ccc(O)c(-c2ccc(O)c(CC=C)c2)c1" . Reported MIC?
[out] 8

* * *

# MIC values compiled below
- Test system: Staphylococcus aureus
- run_description: Antibacterial activity against methicillin-resistant Staphylococcus aureus clinical isolate M17 by CLSI based micro-broth dilution method
- Type: functional
Just the number please, in µg/mL, no unit attached.

See these solved cases before continuing.
1) C=CCc1cc(-c2ccc(OCCC[N+](C)(C)CC(=O)NCCCC)c(CC=C)c2)c2oc(=S)n(Cc3ccc(Cl)cc3)c2c1.[Br-]
8
2) C=CCc1cc(-c2ccc(OCCC[N+](C)(C)CC(=O)NCCCC)c(CC=C)c2)c2oc(=S)n(Cc3ccc(F)c(Cl)c3)c2c1.[Br-]
16
3) C=CCc1cc(-c2ccc(OCCC[N+](C)(C)CC(=O)NCCCC)c(CC=C)c2)c2oc(=S)n(Cc3ccc(Cl)c(Cl)c3)c2c1.[Br-]
128
4) C=CCc1cc(-c2ccc(OCCC[N+](C)(C)CC(=O)NCCCC)c(CC=C)c2)c2oc(=S)n(Cc3ccccc3Br)c2c1.[Br-]
64
5) C=CCc1cc(-c2ccc(OCCC[N+](C)(C)CC(=O)NCCCC)c(CC=C)c2)c2oc(=S)n(Cc3cccc(Br)c3)c2c1.[Br-]
32

[in] Could you share what MIC was measured for "C=CCc1cc(-c2ccc(OCCC[N+](C)(C)CC(=O)NCCCC)c(CC=C)c2)c2oc(=S)n(Cc3cc(Br)cc(Br)c3)c2c1.[Br-]" , tested on Staphylococcus aureus?
[out] 64

* * *

# MIC values compiled below
- Test system: Staphylococcus aureus
- run_description: Antibacterial activity against methicillin-resistant Staphylococcus aureus clinical isolate M20 by CLSI based micro-broth dilution method
- Format: functional

1) C=CCc1cc(-c2ccc(OCCC[N+](C)(C)CC(=O)NCCCC)c(CC=C)c2)c2oc(=S)n(Cc3ccc(F)c(F)c3)c2c1.[Br-]
4 µg/mL
2) C=CCc1cc(-c2ccc(OCCC[N+](C)(C)CC(=O)NCCCC)c(CC=C)c2)c2oc(=S)n(Cc3cccc(Br)c3)c2c1.[Br-]
8 µg/mL
3) C=CCc1cc(-c2ccc(OCCC[N+](C)(C)CC(=O)NCCCC)c(CC=C)c2)c2oc(=S)n(Cc3ccc(Br)cc3Br)c2c1.[Br-]
> 128 µg/mL
4) C=CCc1cc(-c2ccc(OCCC[N+](C)(C)CC(=O)NCCCC)c(CC=C)c2)c2oc(=S)n(Cc3ccccc3Cl)c2c1.[Br-]
8 µg/mL

[in] Item under review: "C=CCc1cc(-c2ccc(OCCC[N+](C)(C)CC(=O)NCCCC)c(CC=C)c2)c2oc(=S)n(Cc3cccc(Cl)c3Cl)c2c1.[Br-]" . Reported MIC?
[out] 8 µg/mL

[in] Item under review: "C=CCc1cc(-c2ccc(OCCC[N+](C)(C)CC(=O)NCCCC)c(CC=C)c2)c2oc(=S)n(Cc3ccc(OC)cc3)c2c1.[Br-]" . Reported MIC?
[out] 2 µg/mL

[in] Item under review: "C=CCc1cc(-c2ccc(OCCC[N+](C)(C)CC(=O)NCCCC)c(CC=C)c2)c2oc(=S)n(Cc3ccc(Cl)c(Cl)c3)c2c1.[Br-]" . Reported MIC?
[out] 32 µg/mL

* * *

# MIC values compiled below
- System: Staphylococcus aureus
- run_description: Antibacterial activity against methicillin-resistant Staphylococcus aureus clinical isolate M16 by CLSI based micro-broth dilution method
- Assay type: functional

See these solved cases before continuing.
1. C=CCc1cc(-c2ccc(OCCC[N+](C)(C)CC(=O)NCCCC)c(CC=C)c2)c2oc(=S)n(Cc3ccc(Cl)c(Br)c3)c2c1.[Br-]
> 128 µg/mL
2. C=CCc1cc(-c2ccc(OCCC[N+](C)(C)CC(=O)NCCCC)c(CC=C)c2)c2oc(=S)n(Cc3ccccc3Br)c2c1.[Br-]
64 µg/mL
3. C=CCc1cc(-c2ccc(OCCC[N+](C)(C)CC(=O)NCCCC)c(CC=C)c2)c2oc(=S)n(Cc3cc(F)c(F)c(F)c3)c2c1.[Br-]
2 µg/mL

[in] Item under review: "C=CCc1cc(-c2ccc(OCCC[N+](C)(C)CC(=O)NCCCC)c(CC=C)c2)c2oc(=S)n(Cc3ccc(Cl)cc3)c2c1.[Br-]" . Reported MIC?
[out] 8 µg/mL

* * *

# MIC values compiled below
- Tested on: Staphylococcus aureus
- run_description: Antibacterial activity against methicillin-resistant Staphylococcus aureus clinical isolate M13 by CLSI based micro-broth dilution method
- Type: functional

See these solved cases before continuing.
1) C=CCc1cc(-c2ccc(OCCC[N+](C)(C)CC(=O)NCCCC)c(CC=C)c2)c2oc(=S)n(Cc3ccc(C(F)(F)F)cc3)c2c1.[Br-]
4 µg/mL
2) C=CCc1cc(-c2ccc(OCCC[N+](C)(C)CC(=O)NCCCC)c(CC=C)c2)c2oc(=S)n(Cc3ccc(Cl)cc3F)c2c1.[Br-]
> 128 µg/mL
3) C=CCc1cc(-c2ccc(OCCC[N+](C)(C)CC(=O)NCCCC)c(CC=C)c2)c2oc(=S)n(Cc3ccc(F)c(Br)c3)c2c1.[Br-]
8 µg/mL
4) C=CCc1cc(-c2ccc(OCCC[N+](C)(C)CC(=O)NCCCC)c(CC=C)c2)c2oc(=S)n(Cc3cc(F)c(F)c(F)c3)c2c1.[Br-]
4 µg/mL

[in] Could you share what MIC was measured for "C=CCc1cc(-c2ccc(OCCC[N+](C)(C)CC(=O)NCCCC)c(CC=C)c2)c2oc(=S)n(Cc3cccc(OC)c3)c2c1.[Br-]" , tested on Staphylococcus aureus?
[out] 8 µg/mL

[in] Could you share what MIC was measured for "C=CCc1cc(-c2ccc(OCCC[N+](C)(C)CC(=O)NCCCC)c(CC=C)c2)c2oc(=S)n(Cc3ccccc3Cl)c2c1.[Br-]" , tested on Staphylococcus aureus?
[out] 8 µg/mL

[in] Could you share what MIC was measured for "C=CCc1cc(-c2ccc(OCCC[N+](C)(C)CC(=O)NCCCC)c(CC=C)c2)c2oc(=S)n(Cc3ccccc3)c2c1.[Br-]" , tested on Staphylococcus aureus?
[out] 4 µg/mL

[in] Could you share what MIC was measured for "C=CCc1cc(-c2ccc(OCCC[N+](C)(C)CC(=O)NCCCC)c(CC=C)c2)c2oc(=S)n(Cc3ccccc3Br)c2c1.[Br-]" , tested on Staphylococcus aureus?
[out] 128 µg/mL

[in] Could you share what MIC was measured for "C=CCc1cc(-c2ccc(OCCC[N+](C)(C)CC(=O)NCCCC)c(CC=C)c2)c2oc(=S)n(Cc3cc(Br)cc(Br)c3)c2c1.[Br-]" , tested on Staphylococcus aureus?
[out] 128 µg/mL

[in] Could you share what MIC was measured for "C=CCc1cc(-c2ccc(OCCC[N+](C)(C)CC(=O)NCCCC)c(CC=C)c2)c2oc(=S)n(Cc3ccc(Cl)cc3Cl)c2c1.[Br-]" , tested on Staphylococcus aureus?
[out] > 128 µg/mL

[in] Could you share what MIC was measured for "C=CCc1cc(-c2ccc(OCCC[N+](C)(C)CC(=O)NCCCC)c(CC=C)c2)c2oc(=S)n(Cc3c(Cl)cccc3Cl)c2c1.[Br-]" , tested on Staphylococcus aureus?
[out] 16 µg/mL

[in] Could you share what MIC was measured for "C=CCc1cc(-c2ccc(OCCC[N+](C)(C)CC(=O)NCCCC)c(CC=C)c2)c2oc(=S)n(Cc3ccc(Cl)cc3Br)c2c1.[Br-]" , tested on Staphylococcus aureus?
[out] > 128 µg/mL

[in] Could you share what MIC was measured for "C=CCc1cc(-c2ccc(OCCC[N+](C)(C)CC(=O)NCCCC)c(CC=C)c2)c2oc(=S)n(Cc3ccc(OC)cc3)c2c1.[Br-]" , tested on Staphylococcus aureus?
[out] 4 µg/mL

[in] Could you share what MIC was measured for "C=CCc1cc(-c2ccc(OCCC[N+](C)(C)CC(=O)NCCCC)c(CC=C)c2)c2oc(=S)n(Cc3ccc(F)cc3Cl)c2c1.[Br-]" , tested on Staphylococcus aureus?
[out] 64 µg/mL

[in] Could you share what MIC was measured for "C=CCc1cc(-c2ccc(OCCC[N+](C)(C)CC(=O)NCCCC)c(CC=C)c2)c2oc(=S)n(Cc3ccc(F)c(F)c3)c2c1.[Br-]" , tested on Staphylococcus aureus?
[out] 2 µg/mL

[in] Could you share what MIC was measured for "C=CCc1cc(-c2ccc(OCCC[N+](C)(C)CC(=O)NCCCC)c(CC=C)c2)c2oc(=S)n(Cc3ccc(Cl)cc3)c2c1.[Br-]" , tested on Staphylococcus aureus?
[out] 8 µg/mL

[in] Could you share what MIC was measured for "C=CCc1ccc(O)c(-c2ccc(O)c(CC=C)c2)c1" , tested on Staphylococcus aureus?
[out] 16 µg/mL

[in] Could you share what MIC was measured for "C=CCc1cc(-c2ccc(OCCC[N+](C)(C)CC(=O)NCCCC)c(CC=C)c2)c2oc(=S)n(Cc3ccc(Br)cc3Br)c2c1.[Br-]" , tested on Staphylococcus aureus?
[out] > 128 µg/mL

[in] Could you share what MIC was measured for "C=CCc1cc(-c2ccc(OCCC[N+](C)(C)CC(=O)NCCCC)c(CC=C)c2)c2oc(=S)n(Cc3ccc(Cl)c(F)c3)c2c1.[Br-]" , tested on Staphylococcus aureus?
[out] 16 µg/mL

[in] Could you share what MIC was measured for "C=CCc1cc(-c2ccc(OCCC[N+](C)(C)CC(=O)NCCCC)c(CC=C)c2)c2oc(=S)n(Cc3ccc(F)c(Cl)c3)c2c1.[Br-]" , tested on Staphylococcus aureus?
[out] 16 µg/mL

[in] Could you share what MIC was measured for "C=CCc1cc(-c2ccc(OCCC[N+](C)(C)CC(=O)NCCCC)c(CC=C)c2)c2oc(=S)n(Cc3cc(Cl)cc(Cl)c3)c2c1.[Br-]" , tested on Staphylococcus aureus?
[out] 32 µg/mL

[in] Could you share what MIC was measured for "C=CCc1cc(-c2ccc(OCCC[N+](C)(C)CC(=O)NCCCC)c(CC=C)c2)c2oc(=S)n(Cc3ccc(Cl)c(Cl)c3)c2c1.[Br-]" , tested on Staphylococcus aureus?
[out] 64 µg/mL

[in] Could you share what MIC was measured for "C=CCc1cc(-c2ccc(OCCC[N+](C)(C)CC(=O)NCCCC)c(CC=C)c2)c2oc(=S)n(Cc3cccc(Cl)c3Cl)c2c1.[Br-]" , tested on Staphylococcus aureus?
[out] 64 µg/mL
